Settings: in ethyl acetate, 303.15 K

- Substance Smiles: "CC(C)(c1cc(Br)c(O)c(Br)c1)c1cc(Br)c(O)c(Br)c1"
  solubility (mole fraction): 0.139

###

Conditions: in ethyl acetate, 333.15 K

- Substance Smiles: "CC(C)(c1cc(Br)c(O)c(Br)c1)c1cc(Br)c(O)c(Br)c1"
  solubility (mole fraction): 0.161

###

Details: in ethyl acetate, 308.15 K
Test Readout: solubility (mole fraction)

- Substance Smiles: "CC(C)(c1cc(Br)c(O)c(Br)c1)c1cc(Br)c(O)c(Br)c1"
  Numeric Value: 0.141

###

Conditions: in n-pentanol, 313.15 K

- Substance Smiles: "CC(C)(c1cc(Br)c(O)c(Br)c1)c1cc(Br)c(O)c(Br)c1"
  solubility (mole fraction): 0.0609
